# protocol: Phase 2 study: population pharmacokinetics of plasma concentrations
# Format: in vivo, human (infants)
# conditions: human, plasma, po, 1 mg/kg, Part 1, single oral dose 1.0 mg/kg; read-out: tmax median (range)
# Protocol: Individual plasma concentrations of the active drug were measured, and PK were determined using nonlinear mixed‐effect models. […] Clinical safety and tolerability were assessed on the safety population, comprising all subjects who received ≥1 dose of study drug. Clinical variables were evaluated in the full analysis population, which included all subjects who received a dose of study drug and for whom ≥1 post‐treatment assessment was available. […]

# smiles-notation, value-unit, Tmax
records = [
    ("Cc1ccc2nc(N3CCS(=O)(=O)c4ccccc4C3)nc(NCC3(N)COC3)c2c1", "h", 4.3),
]

###

# protocol: Phase 2 study: population pharmacokinetics of plasma concentrations
# Format: in vivo, human (infants)
# conditions: human, plasma; Part 1, single oral dose 1.0 mg/kg; read-out: AUC0–24 mean (CV %)
# Method: Individual plasma concentrations of the active drug were measured, and PK were determined using nonlinear mixed‐effect models. […] Clinical safety and tolerability were assessed on the safety population, comprising all subjects who received ≥1 dose of study drug. Clinical variables were evaluated in the full analysis population, which included all subjects who received a dose of study drug and for whom ≥1 post‐treatment assessment was available. […]
endpoint-label: AUC(0-t) (ng·h/mL)

# smiles-notation, endpoint-label, quantitative-readout
rows = [
    ("Cc1ccc2nc(N3CCS(=O)(=O)c4ccccc4C3)nc(NCC3(N)COC3)c2c1", "AUC(0-t)", 2890),
]

###

# protocol: Phase 2 study: population pharmacokinetics of plasma concentrations
# Format: in vivo, human (infants)
# conditions: human, plasma; Part 1, single oral dose 4.0 mg/kg; read-out: AUC0–24 mean (CV %)

# smiles-notation, value-unit, AUC(0-t)
measured = [
    ("Cc1ccc2nc(N3CCS(=O)(=O)c4ccccc4C3)nc(NCC3(N)COC3)c2c1", "ng·h/mL", 7780),
]

###

# protocol: Phase 2 study: population pharmacokinetics of plasma concentrations
# Assay type: in vivo, human (infants)
# conditions: human, plasma, oral, Part 2, Days 1 and 5; read-out: median tmax
endpoint-label: Tmax

# compound, result
measured = [
    ("Cc1ccc2nc(N3CCS(=O)(=O)c4ccccc4C3)nc(NCC3(N)COC3)c2c1 [AK0529, ziresovir]", "2.5 to 3.8 h"),
]

###

# protocol: Phase 2 study: population pharmacokinetics of plasma concentrations
# Assay type: in vivo, human (infants)
# conditions: human, plasma; Part 1, single oral dose 0.5 mg/kg; read-out: AUC0–24 mean (CV %)

# smiles-notation, AUC(0-t) (ng·h/mL)
data = [
    ("Cc1ccc2nc(N3CCS(=O)(=O)c4ccccc4C3)nc(NCC3(N)COC3)c2c1", 1770),
]

###

# protocol: Phase 2 study: population pharmacokinetics of plasma concentrations
# Type: in vivo, human (infants)
# conditions: human, plasma; Part 1, single oral dose 4.0 mg/kg, N 3 incl. one subject of Study AK0529-1002; read-out: Cmax mean (CV %)

# smiles-notation, Cmax
rows = [
    ("Cc1ccc2nc(N3CCS(=O)(=O)c4ccccc4C3)nc(NCC3(N)COC3)c2c1", "888 ng/mL"),
]

###

# protocol: Phase 2 study: population pharmacokinetics of plasma concentrations
# Format: in vivo, human (infants)
# conditions: human, plasma; Part 1, single oral dose 1.0 mg/kg; read-out: AUC0–∞ mean (CV %)

# compound, AUC(0-inf)
data = [
    ("Cc1ccc2nc(N3CCS(=O)(=O)c4ccccc4C3)nc(NCC3(N)COC3)c2c1 [AK0529, ziresovir]", "3150 ng·h/mL"),
]
